EXPERIMENT NOTES: Dog plasma PK, IV and oral
Format: in vivo
MEASUREMENT CONDITIONS: male, Beagle, dog, plasma, iv, 2.1 mg/kg, plasma, IV 2.1 mg kg-1, Dog 1; read-out: CL
MEASURED PROPERTY: clearance
Remember to quote the unit after the number.

clearance for `Cc1nc(Nc2ncc(N3CCN(C)[C@H](C)C3)c(Nc3cc(C)n(C)n3)n2)cc(C2CC2)c1F` ?
27.5 mL/min/kg

* * *

EXPERIMENT NOTES: Rat blood PK, IV and oral
Type: in vivo
MEASUREMENT CONDITIONS: Wistar, rat, whole blood, iv, 2 mg/kg, IV 2 mg kg-1, Rat 1; read-out: t½ (converted)
MEASURED PROPERTY: half-life (h)
Give bare numbers, in h.

half-life for Cc1nc(Nc2ncc(N3CCN(C)[C@H](C)C3)c(Nc3cc(C)n(C)n3)n2)cc(C2CC2)c1F [compound 12] ?
13.5
